test system: Rat white adipocytes; experiment: Stimulation of differentiation of the adipocytes (Oil Red O); format: cell-based; conditions: 100 nM test compound; 5 days; Oil Red O ABS550; control = 100%, blank = 0%; Table 7
readout.label: Rate of Differentiation (%)
The figure you give is taken to be in %; do not add the unit.

Reported Rate of Differentiation (%) for Cc1ccc(S(=O)(=O)Nc2ccc(NC(=O)c3cc([N+](=O)[O-])ccc3Cl)cc2)cc1 : what is it?
114.6

Consider next the compound O=C(Nc1ccc(-c2ccc(O)cc2)cc1)c1cc([N+](=O)[O-])ccc1Cl in the same way.
128.0

Consider next the compound Cc1ccc2nc(NC(=O)c3cc([N+](=O)[O-])ccc3Cl)sc2c1 in the same way.
133.2

Consider next the compound COC(=O)c1nccnc1NC(=O)c1cc([N+](=O)[O-])ccc1Cl in the same way.
110.5

Consider next the compound Cl.NCCc1ccc(NC(=O)c2cc([N+](=O)[O-])ccc2Cl)cc1 in the same way.
114.9

Consider next the compound NC(=O)N1CCN(c2ccc(NC(=O)c3cc([N+](=O)[O-])ccc3Cl)cc2)CC1 in the same way.
111.5

Consider next the compound Cc1cc(NS(=O)(=O)c2ccc(NC(=O)c3cc([N+](=O)[O-])ccc3Cl)cc2)no1 in the same way.
119.0

Consider next the compound O=C(Nc1ccc(S(=O)(=O)Nc2ccc(-n3ccnc3)cc2)cc1)c1cc([N+](=O)[O-])ccc1Cl in the same way.
112.7

Consider next the compound Cl.O=C(Nc1ccc(-c2ccccn2)cc1)c1cc([N+](=O)[O-])ccc1Cl in the same way.
115.5

###

Test system: Rat white adipocytes
Assay: Inhibition of the differentiation of adipocytes (Oil Red O)
Format: cell-based
Conditions: Rattus norvegicus, Adipocyte, 120 h, 100 nM test compound; 5 days; Oil Red O ABS550; control = 100%, blank = 0%; Table 3; read-out: Rate of Differentiation (%)
Experimental: Rat white adipocytes contained in the white adipocyte culture kit purchased from HOKUDO were used. […] After culturing for 5 days, all differentiation-inducing medium was discarded and replaced with 60 μL of 10% (v/v) formaldehyde solution (for fixation) in each well and the cells were kept stationary for 20 min at room temperature. […] The measured level at ABS550 in the control group was defined as 100%, while the level at ABS550 in the blank group was defined as 0%. […]
readout.label: activity at 0.1 µM (%)
The figure you give is taken to be in %; do not add the unit.

Reported activity at 0.1 µM for COC(=O)c1cccc(NC(=O)c2cc([N+](=O)[O-])ccc2Cl)c1 [Example 143] : what is it?
84.9

Consider next the compound O=C(Nc1ccc(-n2ccnc2)cc1)c1cccc(NC(=O)c2cc([N+](=O)[O-])ccc2Cl)c1 [Example 231] in the same way.
20.1

Consider next the compound O=C(Nc1ccc(-c2ccc(NC(=S)Nc3cccnc3)cc2)cc1)c1cc([N+](=O)[O-])ccc1Cl [Example 256] in the same way.
38.2

Consider next the compound O=C(NCCc1ccc(NC(=O)c2cc([N+](=O)[O-])ccc2Cl)cc1)Nc1ccccc1 [Example 268] in the same way.
54.8

###

Measured pEC50 of individual entries
biological target: human PPAR γ 2 (Homo sapiens, UniProt P37231); experiment: PPAR γ transcriptional activity, luciferase reporter, test compound alone; details: concentration indicating Emax/2, MG63 cells transfected with pSG5-hPPARg and pGV-P2-PPRE, 24 hr
In simple prose, pEC50 is minus the logarithm base ten of a concentration in moles per litre.

1) Cc1cc(NS(=O)(=O)c2ccc(NC(=O)c3cc([N+](=O)[O-])ccc3Cl)cc2)no1 [Example 99] ... 7.47

Now for another entry.
Reported pEC50 for O=C(Nc1cccc2cccnc12)c1cc([N+](=O)[O-])ccc1Cl [Example 57] : what is it?
6.59

###

system: TNF-α production; experiment: Inhibitory activity against cytokine (TNF-α) production in LPS-stimulated RAW264.7 cells; assay type: cell-based, mouse; settings: 1 μM test compound, LPS 10 ng/mL, 15 hr
readout.label: Inhibitory Activity (%) against TNF-α production
The figure you give is taken to be in %; do not add the unit.

These solved cases illustrate the format of a correct answer.
1. O=C(Nc1ccc(-c2ccc(O)cc2)cc1)c1cc([N+](=O)[O-])ccc1Cl [Example 135] ... 16.6
2. Cc1ccc(S(=O)(=O)Nc2ccc(NC(=O)c3cc([N+](=O)[O-])ccc3Cl)cc2)cc1 [Example 32] ... 19.8
3. Cc1ccc2nc(NC(=O)c3cc([N+](=O)[O-])ccc3Cl)sc2c1 [Example 141] ... 15.9

Reported Inhibitory Activity (%) against TNF-α production for CCCCNc1ccc(-c2ccc(NC(=O)c3cc([N+](=O)[O-])ccc3Cl)cc2)cc1 [Example 203] : what is it?
27.1

###

biological target: human PPAR γ 2 (Homo sapiens); experiment: Inhibitory activity against PPAR γ transcription in the presence of agonist compound A, luciferase reporter; conditions: in the presence of 10 nM compound A (agonist); MG63 cells transfected with pSG5-hPPARg and pGV-P2-PPRE; 24 hr
Measured IC50 of individual entries
Enter the number, and then the unit.

These solved cases illustrate the format of a correct answer.
1) NCCc1ccc(NC(=O)c2cc([N+](=O)[O-])ccc2Cl)cc1 ... 0.06 µM
2) CC(C)(C)c1cc(NS(=O)(=O)c2ccc(NC(=O)c3cc([N+](=O)[O-])ccc3Cl)cc2)cc(C(C)(C)C)c1O ... 0.099 µM
3) O=C(Nc1ccc2c3c(cccc13)CC2)c1cc([N+](=O)[O-])ccc1Cl ... 0.34 µM
4) O=C(Nc1ccc(C(=O)N2CCOCC2)cc1)c1cc([N+](=O)[O-])ccc1Cl ... 0.082 µM
5) Cc1nc(NC(=O)c2cc([N+](=O)[O-])ccc2Cl)sc1C ... 0.038 µM
6) CN1CCN(C(=O)c2ccc(NC(=O)c3cc([N+](=O)[O-])ccc3Cl)cc2)CC1 ... 0.0006 µM
7) CC(O)c1ccc(NC(=O)c2cc([N+](=O)[O-])ccc2Cl)cc1 (centres unmarked) ... 0.0093 µM
8) COc1ccc(NC(=O)c2cc([N+](=O)[O-])ccc2Cl)cc1-c1ccccc1 ... 0.16 µM
9) CCN(c1ccc(NS(=O)(=O)c2ccc(NC(=O)c3cc([N+](=O)[O-])ccc3Cl)cc2)cc1)C(C)C ... 0.056 µM
10) O=C(Nc1nc(-c2ccccn2)cs1)c1cc([N+](=O)[O-])ccc1Cl ... 0.045 µM

Reported IC50 for CC(=O)c1ccc(NC(=O)c2cc([N+](=O)[O-])ccc2Cl)cc1 : what is it?
0.0098 µM

###

Biological target: human PPAR γ 2 (Homo sapiens)
Sequence (P37231 1-505): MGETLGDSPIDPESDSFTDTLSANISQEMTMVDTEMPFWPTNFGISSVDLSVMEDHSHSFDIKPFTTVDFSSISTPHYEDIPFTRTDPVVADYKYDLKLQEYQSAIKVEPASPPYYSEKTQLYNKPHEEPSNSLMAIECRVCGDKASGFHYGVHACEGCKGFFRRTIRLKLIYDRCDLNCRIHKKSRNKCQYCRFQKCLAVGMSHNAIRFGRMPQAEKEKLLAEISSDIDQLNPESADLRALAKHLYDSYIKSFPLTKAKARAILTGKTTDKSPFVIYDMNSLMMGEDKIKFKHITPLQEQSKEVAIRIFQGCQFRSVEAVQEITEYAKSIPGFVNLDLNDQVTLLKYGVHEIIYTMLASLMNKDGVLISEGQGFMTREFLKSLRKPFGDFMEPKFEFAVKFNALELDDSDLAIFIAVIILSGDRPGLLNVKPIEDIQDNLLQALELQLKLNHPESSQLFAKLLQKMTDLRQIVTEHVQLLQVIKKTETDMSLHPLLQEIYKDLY
Experiment: Inhibitory activity against PPAR γ transcription in the presence of agonist compound A, luciferase reporter
Details: in the presence of 10 nM compound A (agonist); MG63 cells transfected with pSG5-hPPARg and pGV-P2-PPRE; 24 hr
readout.label: IC50 (nM)
The figure you give is taken to be in nM; do not add the unit.

1. Cc1cc(Cl)nc(NC(=O)c2cc([N+](=O)[O-])ccc2Cl)n1 [Example 78] ... 84

Value wanted: IC50 (human PPAR γ 2 (Homo sapiens)) of entry CC(C)(C)c1cc(NC(=O)c2cc([N+](=O)[O-])ccc2Cl)cc(C(C)(C)C)c1O [Example 29]
230

Consider next the compound CCS(=O)(=O)Nc1ccc(-c2ccc(NC(=O)c3cc([N+](=O)[O-])ccc3Cl)cc2)cc1 [Example 130] in the same way.
11

Consider next the compound Cc1ccc(-c2nc(NC(=O)c3cc([N+](=O)[O-])ccc3Cl)sc2C)cc1Cl [Example 46] in the same way.
54
